Molecular target: Lysophosphatidic acid receptor 5 (Homo sapiens)
Sequence (Q9H1C0 whole entry): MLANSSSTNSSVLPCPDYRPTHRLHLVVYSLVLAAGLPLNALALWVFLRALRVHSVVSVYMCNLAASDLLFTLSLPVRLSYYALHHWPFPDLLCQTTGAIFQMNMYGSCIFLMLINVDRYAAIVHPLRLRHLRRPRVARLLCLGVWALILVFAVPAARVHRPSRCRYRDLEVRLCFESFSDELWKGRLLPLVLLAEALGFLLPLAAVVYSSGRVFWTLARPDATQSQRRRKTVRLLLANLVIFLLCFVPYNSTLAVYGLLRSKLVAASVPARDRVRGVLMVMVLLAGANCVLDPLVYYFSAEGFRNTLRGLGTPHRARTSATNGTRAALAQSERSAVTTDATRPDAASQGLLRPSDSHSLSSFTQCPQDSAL
Experiment: Antagonist activity at human LPA5 receptor expressed in RH7777 cells assessed as inhibition of EC80 concentration of hexadecyl LPA-induced calcium mobilization incubated for 15 mins by FLIPR method
Type: functional, cell-based
Lab note: cut-off is 300 nM. Strictly less in IC50 is True. Exactly 300 nM or more is False.

Ask: Threshold test, IC50 < 300 nM: "COc1cc2c(C(=O)N3CCCCC3)cn(-c3cccc(N(C)C)c3)c(=O)c2cc1OC"
Reply: True

Ask: Lab note: confirm whether the reported IC50 for this molecule is below 300 nM, equality not counting. molecule: "COc1cc2c(C(=O)N3CCC(F)CC3)cn(-c3ccc4scc(C)c4c3)c(=O)c2cc1OC"
Reply: True
